Measured intake of mouse organ: Liver accompanies every entry in the list below.
Test system: PSMA^+ PC-3 PIP tumors
assayExplanation: MicroPET/CT imaging of mice transplanted with prostate cancer cell lines
Assay type: in vivo, nude mouse
testParameters: 20 min after injection
propertyMeasured: intake of mouse organ: Liver

compound | result
O=C(O)CCC(NC(=O)NC(CCCCN(CC(=O)O)C(=O)COCCNC(=O)C(CCCCNC(=O)CCCc1ccc(I)cc1)NC(=O)CN1CCN2CCN3CCN(CC1)CC(=O)[O][68Ga]([O]C(=O)C2)[O]C(=O)C3)C(=O)O)C(=O)O (stereo not shown) [[^68Ga]1k] | 11.09 ± 3.46 % ID/g
O=C(O)CCC(NC(=O)NC(CCCCN(CC(=O)O)C(=O)COCCOCCNC(=O)CN1CCN2CCN3CCN(CC1)CC(=O)[O][68Ga]([O]C(=O)C2)[O]C(=O)C3)C(=O)O)C(=O)O (stereo not shown) [[^68Ga]1e] | 1.96 ± 0.22 % ID/g
Cc1ccc(CCCC(=O)NCCCCC(NC(=O)CN2CCN3CCN4CCN(CC2)CC(=O)[O][68Ga]([O]C(=O)C3)[O]C(=O)C4)C(=O)NCCOCCOCC(=O)N(CCCCC(NC(=O)NC(CCC(=O)O)C(=O)O)C(=O)O)CC(=O)O)cc1 (stereo not shown) [[^68Ga]1g] | 7.26 ± 1.06 % ID/g
O=C(O)CCC(NC(=O)NC(CCCCN(CC(=O)O)C(=O)COCCOCCNC(=O)C(CCCCNC(=O)CCCc1ccc(I)cc1)NC(=O)CN1CCN2CCN3CCN(CC1)CC(=O)[O][68Ga]([O]C(=O)C2)[O]C(=O)C3)C(=O)O)C(=O)O (stereo not shown) [[^68Ga]1h] | 12.71 ± 0.03 % ID/g

###

Test system: PSMA^+ PC-3 PIP tumors
assayExplanation: MicroPET/CT imaging of mice transplanted with prostate cancer cell lines
Format: in vivo, nude mouse
testParameters: 270 min after injection
Measured intake of mouse organ: Bladder accompanies every entry in the list below.
propertyMeasured: intake of mouse organ: Bladder (% ID/g)

compound | result
O=C(O)CCC(NC(=O)NC(CCCCN(CC(=O)O)C(=O)COCCOCCNC(=O)CN1CCN2CCN3CCN(CC1)CC(=O)[O][68Ga]([O]C(=O)C2)[O]C(=O)C3)C(=O)O)C(=O)O (stereo not shown) [[^68Ga]1e] | 1.45
Cc1ccc(CCCC(=O)NCCCCC(NC(=O)CN2CCN3CCN4CCN(CC2)CC(=O)[O][68Ga]([O]C(=O)C3)[O]C(=O)C4)C(=O)NCCOCCOCC(=O)N(CCCCC(NC(=O)NC(CCC(=O)O)C(=O)O)C(=O)O)CC(=O)O)cc1 (stereo not shown) [[^68Ga]1g] | 12.05
O=C(O)CCC(NC(=O)NC(CCCCN(CC(=O)O)C(=O)COCCNC(=O)C(CCCCNC(=O)CCCc1ccc(I)cc1)NC(=O)CN1CCN2CCN3CCN(CC1)CC(=O)[O][68Ga]([O]C(=O)C2)[O]C(=O)C3)C(=O)O)C(=O)O (stereo not shown) [[^68Ga]1k] | 20.10
O=C(O)CCC(NC(=O)NC(CCCCN(CC(=O)O)C(=O)COCCOCCNC(=O)C(CCCCNC(=O)CCCc1ccc(I)cc1)NC(=O)CN1CCN2CCN3CCN(CC1)CC(=O)[O][68Ga]([O]C(=O)C2)[O]C(=O)C3)C(=O)O)C(=O)O (stereo not shown) [[^68Ga]1h] | 15.90
